As shown below, each of these compounds has a reported CC50 at 72 h value.
- test-protocol: Cytotoxicity in mock-infected Vero-E6 cells (CellTiter-Glo)
- test-conditions: African green monkey
Report the figure in µM without appending any unit label.

compound	recorded-measurement
CC[C@H]1CN2CCc3cc(OC)c(OC)cc3[C@@H]2C[C@@H]1C[C@H]1NCCc2cc(OC)c(OC)cc21 [Emetine]	0.7

Exercise: So what's the measured CC50 at 72 h for this one? CC[C@@H](C(=O)[C@@H](C)[C@@H](O)[C@H](C)[C@@H]1O[C@@H]([C@@H](CC)C(=O)O)CC[C@@H]1C)[C@H]1O[C@]2(C=C[C@@H](O)[C@]3(CC[C@@](C)([C@H]4CC[C@](O)(CC)[C@H](C)O4)O3)O2)[C@H](C)C[C@@H]1C [Salinomycin]
Key: 13.9

These measurements were taken from paper PMC7354438.
